Reference source: PubChem BioAssay AID1963873

tested on: 276233-004-R-J1-PDC KRAS spheroids with HUVEC/MSC, viability; assay: Anticancer human tumor 276233-004-R-J1-PDC patient-derived colon adenocarcinoma cell line growth inhibition [KRAS2]; settings: second compound 3.16 µM; first compound 1 µM; stronger effect = lower value
Provide the recorded viability, T/C for the entries that follow.
Numeric answer only, unit % assumed.

**Q:** Enter reported viability, T/C observed with 276233-004-R-J1-PDC KRAS spheroids with HUVEC/MSC, viability for CC(C)NCC(C(=O)N1CCN(c2ncnc3c2C(C)CC3O)CC1)c1ccc(Cl)cc1 (stereo unspecified) + C=CC(=O)N1CCN(c2nc(OCC3CCCN3C)nc3c2CCN(c2cccc4cccc(C)c24)C3)CC1CC#N
**A:** 22

**Q:** Lookup: viability, T/C / 276233-004-R-J1-PDC KRAS spheroids with HUVEC/MSC, viability / CC1COCCN1c1cc(-c2ccnn2C)c2ccnc(-c3ccn[nH]3)c2n1 (stereo unspecified) + CNCc1ccccc1-c1csc(C(C)Nc2nc(C)nc3cc(OC)c(OC)cc23)c1
**A:** 2.11

**Q:** Kindly state the measured viability, T/C obtained for COc1cc2nccc(Oc3ccc(NC(=O)C4(C(=O)Nc5ccc(F)cc5)CC4)cc3)c2cc1OC + C=CC(=O)N1CCN(c2nc(OCC3CCCN3C)nc3c2CCN(c2cccc4cccc(C)c24)C3)CC1CC#N with 276233-004-R-J1-PDC KRAS spheroids with HUVEC/MSC, viability.
**A:** 76.7

**Q:** Notebook: pull reported viability, T/C for 276233-004-R-J1-PDC KRAS spheroids with HUVEC/MSC, viability, entry CC(=O)OC12COC1CC(O)C1(C)C(=O)C(O)C3=C(C)C(OC(=O)C(O)C(NC(=O)OC(C)(C)C)c4ccccc4)CC(O)(C(OC(=O)c4ccccc4)C21)C3(C)C (stereo unspecified) + CNCc1ccccc1-c1csc(C(C)Nc2nc(C)nc3cc(OC)c(OC)cc23)c1
**A:** 1.78

**Q:** Enter reported viability, T/C observed with 276233-004-R-J1-PDC KRAS spheroids with HUVEC/MSC, viability for CCNC(=O)CC1N=C(c2ccc(Cl)cc2)c2cc(OC)ccc2-n2c(C)nnc21 (stereo unspecified) + CNCc1ccccc1-c1csc(C(C)Nc2nc(C)nc3cc(OC)c(OC)cc23)c1
**A:** 0.85

**Q:** Find the measured viability, T/C: item CC1(C)CCC(CN2CCN(c3ccc(C(=O)NS(=O)(=O)c4ccc(NCC5CCOCC5)c([N+](=O)[O-])c4)c(Oc4cnc5[nH]ccc5c4)c3)CC2)=C(c2ccc(Cl)cc2)C1 + C=CC(=O)N1CCN(c2nc(OCC3CCCN3C)nc3c2CCN(c2cccc4cccc(C)c24)C3)CC1CC#N , target or system 276233-004-R-J1-PDC KRAS spheroids with HUVEC/MSC, viability.
**A:** 23.2

**Q:** GET /values?readout=viability, T/C&system=276233-004-R-J1-PDC KRAS spheroids with HUVEC/MSC, viability&item= CC1COCCN1c1cc(-c2ccnn2C)c2ccnc(-c3ccn[nH]3)c2n1 (stereo unspecified) + COc1cc2nc(C)nc(NC(C)c3cc(N)cc(C(F)(F)F)c3)c2cc1OC1CCOC1
**A:** 37.5

**Q:** Reported viability, T/C for 276233-004-R-J1-PDC KRAS spheroids with HUVEC/MSC, viability, given CCN1CCN(Cc2ccc(Nc3ncc(F)c(-c4cc(F)c5nc(C)n(C(C)C)c5c4)n3)nc2)CC1 + CC1OCC2(CCN(c3cnc(Sc4ccnc(N)c4Cl)c(N)n3)CC2)C1N ?
**A:** 70

**Q:** Param readout = viability, T/C; param system = 276233-004-R-J1-PDC KRAS spheroids with HUVEC/MSC, viability; param query = Cn1nccc1Nc1nccc(-c2cc3c(s2)C(C)(C)N(CCN2CCOCC2)C3=O)n1 + C=CC(=O)N1CCN(c2nc(OCC3CCCN3C)nc3c2CCN(c2cccc4cccc(C)c24)C3)CC1CC#N ; response: value
**A:** 47.5

**Q:** # get_value(readout= viability, T/C, system= 276233-004-R-J1-PDC KRAS spheroids with HUVEC/MSC, viability) for COC(=O)c1ccc2c(C(=Nc3ccc(N(C)C(=O)CN4CCN(C)CC4)cc3)c3ccccc3)c(O)[nH]c2c1 + C=CC(=O)N1CCN(c2nc(=O)n(-c3c(C)ccnc3C(C)C)c3nc(-c4c(O)cccc4F)c(F)cc23)C(C)C1
**A:** 63.3

**Q:** viability, T/C of Cn1nccc1Nc1nccc(-c2cc3c(s2)C(C)(C)N(CCN2CCOCC2)C3=O)n1 + C=CC(=O)N1CCN(c2nc(=O)n(-c3c(C)ccnc3C(C)C)c3nc(-c4c(O)cccc4F)c(F)cc23)C(C)C1 on 276233-004-R-J1-PDC KRAS spheroids with HUVEC/MSC, viability?
**A:** 98.5

###

Would you kindly list viability, T/C for each of these molecules?
system: 276233-004-R-J1-PDC KRAS spheroids with HUVEC/MSC, viability; test: Anticancer human tumor 276233-004-R-J1-PDC cell line growth inhibition [KRAS2]; conditions: second compound 0.1 µM; first compound 0.0316 µM; stronger effect = lower value;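 further: cells exposed to agents for seven days before viability read; 100% = DMSO vehicle control wells and lower values mean fewer viable cells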

**Q:** Hello, I am looking for reported viability, T/C with 276233-004-R-J1-PDC KRAS spheroids with HUVEC/MSC, viability for CC1OCC2(CCN(c3cnc(Sc4ccnc(N)c4Cl)c(N)n3)CC2)C1N (stereo not given) + C=CC(=O)N1CCN(c2nc(OCC3CCCN3C)nc3c2CCN(c2cccc4cccc(C)c24)C3)CC1CC#N . Could you help?
**A:** 98.2%

**Q:** What reported viability, T/C corresponds to COc1cc(Nc2ncc3c(n2)-c2ccc(Cl)cc2C(c2c(F)cccc2OC)=NC3)ccc1C(=O)O + C=CC(=O)N1CCN(c2nc(=O)n(-c3c(C)ccnc3C(C)C)c3nc(-c4c(O)cccc4F)c(F)cc23)C(C)C1 on 276233-004-R-J1-PDC KRAS spheroids with HUVEC/MSC, viability?
**A:** 132%

**Q:** Could you share what viability, T/C was measured for CN(C)C/C=C/C(=O)Nc1cc2c(Nc3ccc(F)c(Cl)c3)ncnc2cc1O[C@H]1CCOC1 + COc1cc2nc(C)nc(NC(C)c3cc(N)cc(C(F)(F)F)c3)c2cc1OC1CCOC1 , tested on 276233-004-R-J1-PDC KRAS spheroids with HUVEC/MSC, viability?
**A:** 79.8%

**Q:** Notebook entry, 276233-004-R-J1-PDC KRAS spheroids with HUVEC/MSC, viability assay: viability, T/C of COc1cc2nccc(Oc3ccc(NC(=O)C4(C(=O)Nc5ccc(F)cc5)CC4)cc3)c2cc1OC + COc1cc2nc(C)nc(NC(C)c3cc(N)cc(C(F)(F)F)c3)c2cc1OC1CCOC1 = ?
**A:** 74.9%

**Q:** Lab request: please report viability, T/C under test system 276233-004-R-J1-PDC KRAS spheroids with HUVEC/MSC, viability for CCN1CCN(Cc2ccc(Nc3ncc(F)c(-c4cc(F)c5nc(C)n(C(C)C)c5c4)n3)nc2)CC1 + C=CC(=O)N1CCN(c2nc(OCC3CCCN3C)nc3c2CCN(c2cccc4cccc(C)c24)C3)CC1CC#N
**A:** 86%

**Q:** viability, T/C of Cn1ncnc1[C@H]1c2n[nH]c(=O)c3cc(F)cc(c23)N[C@@H]1c1ccc(F)cc1 + CNCc1ccccc1-c1csc(C(C)Nc2nc(C)nc3cc(OC)c(OC)cc23)c1 on 276233-004-R-J1-PDC KRAS spheroids with HUVEC/MSC, viability?
**A:** 87.6%

**Q:** Please provide the recorded viability, T/C for CC(=O)Nc1cccc(-n2c(=O)n(C3CC3)c(=O)c3c(Nc4ccc(I)cc4F)n(C)c(=O)c(C)c32)c1 + CC1OCC2(CCN(c3cnc(Sc4ccnc(N)c4Cl)c(N)n3)CC2)C1N , tested on 276233-004-R-J1-PDC KRAS spheroids with HUVEC/MSC, viability.
**A:** 13.1%

**Q:** Give the reported viability, T/C for CC(C)n1nc(-c2ccc3oc(N)nc3c2)c2c(N)ncnc21 + COc1cc2nc(C)nc(NC(C)c3cc(N)cc(C(F)(F)F)c3)c2cc1OC1CCOC1 (system: 276233-004-R-J1-PDC KRAS spheroids with HUVEC/MSC, viability).
**A:** 64.7%

**Q:** Form field - read-out: viability, T/C; system: 276233-004-R-J1-PDC KRAS spheroids with HUVEC/MSC, viability; submitted item: COc1cc2nccc(Oc3ccc(NC(=O)C4(C(=O)Nc5ccc(F)cc5)CC4)cc3)c2cc1OC + CC1OCC2(CCN(c3cnc(Sc4ccnc(N)c4Cl)c(N)n3)CC2)C1N
**A:** 78.9%

**Q:** Reported viability, T/C for 276233-004-R-J1-PDC KRAS spheroids with HUVEC/MSC, viability, given CC1OCC2(CCN(c3cnc(Sc4ccnc(N)c4Cl)c(N)n3)CC2)C1N (stereo not given) + COc1cc2nc(C)nc(NC(C)c3cc(N)cc(C(F)(F)F)c3)c2cc1OC1CCOC1 ?
**A:** 93.6%

**Q:** API: value(readout= viability, T/C, system= 276233-004-R-J1-PDC KRAS spheroids with HUVEC/MSC, viability, query= COC(=O)c1ccc2c(C(=Nc3ccc(N(C)C(=O)CN4CCN(C)CC4)cc3)c3ccccc3)c(O)[nH]c2c1 + C=CC(=O)N1CCN(c2nc(OCC3CCCN3C)nc3c2CCN(c2cccc4cccc(C)c24)C3)CC1CC#N )
**A:** 77.4%

**Q:** Lab note: need viability, T/C for CCN1CCN(Cc2ccc(Nc3ncc(F)c(-c4cc(F)c5nc(C)n(C(C)C)c5c4)n3)nc2)CC1 + COc1cc2nc(C)nc(NC(C)c3cc(N)cc(C(F)(F)F)c3)c2cc1OC1CCOC1 on 276233-004-R-J1-PDC KRAS spheroids with HUVEC/MSC, viability, anyone have it?
**A:** 88.7%

**Q:** Write down the reported viability, T/C of CCNC(=O)CC1N=C(c2ccc(Cl)cc2)c2cc(OC)ccc2-n2c(C)nnc21 (stereo not given) + CNCc1ccccc1-c1csc(C(C)Nc2nc(C)nc3cc(OC)c(OC)cc23)c1 , test system: 276233-004-R-J1-PDC KRAS spheroids with HUVEC/MSC, viability.
**A:** 86.7%

**Q:** Param readout= viability, T/C; system= 276233-004-R-J1-PDC KRAS spheroids with HUVEC/MSC, viability; entry= CC1(C)CCC(CN2CCN(c3ccc(C(=O)NS(=O)(=O)c4ccc(NCC5CCOCC5)c([N+](=O)[O-])c4)c(Oc4cnc5[nH]ccc5c4)c3)CC2)=C(c2ccc(Cl)cc2)C1 + CNCc1ccccc1-c1csc(C(C)Nc2nc(C)nc3cc(OC)c(OC)cc23)c1 ; returns value.
**A:** 81.9%

**Q:** Recorded viability, T/C for O=C(c1cc(Cc2n[nH]c(=O)c3ccccc23)ccc1F)N1CCN(C(=O)C2CC2)CC1 + CNCc1ccccc1-c1csc(C(C)Nc2nc(C)nc3cc(OC)c(OC)cc23)c1 with 276233-004-R-J1-PDC KRAS spheroids with HUVEC/MSC, viability, please?
**A:** 98.5%
